These entries and their values trace back to PubChem BioAssay (EPA / NIEHS).

# Tested on: TTR (gene 7276)
# ASSAY INFO: CCTE_GLTED_hTTR_0.125uM: CCTE's human Transthyretin (hTTR) Inhibition Assay, with 0.125uM TTR, Great Lakes Toxicology and Ecology Division (GLTED) Lab (AID 2284431);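 also: hits lower the fluorescence signal relative to DMSO baseline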
The source made the active and inactive calls. The calls were made as follows: active = hit-call score of the fitted dose curve at least 0.9, where 1 is the maximum; inactive = score below 0.9.
AC50 for assorted molecules
MEASURE NAME: AC50

[[record]]
molecule = "O=S(=O)(O)c1ccc(N=Nc2c(O)ccc3ccccc23)cc1"
meas_value = "258 nM (active)"

[[record]]
molecule = "CCCCCC[C@@H](O)C/C=C\\CCCCCCCC(=O)OCC(O)CO (some centres not stated)"
meas_value = "13500 nM (active)"

[[record]]
molecule = "COc1ccc(-c2coc3cc(O)cc(O)c3c2=O)cc1"
meas_value = "335 nM (active)"

[[record]]
molecule = "Oc1ccc(-c2ccccc2)c(Cl)c1"
meas_value = "35.3 nM (active)"

[[record]]
molecule = "CC(C)(c1ccccc1)c1ccc(Nc2ccc(C(C)(C)c3ccccc3)cc2)cc1"
meas_value = "20200 nM (active)"

[[record]]
molecule = "CCCCCCOc1ccc(N)cc1"
meas_value = "21200 nM (active)"

[[record]]
molecule = "Oc1ccccc1Cc1ccccc1O"
meas_value = "3620 nM (active)"

[[record]]
molecule = "CCCCCCCCCCCC(=O)N(C)CC(=O)O"
meas_value = "21400 nM (active)"

[[record]]
molecule = "CCCCCCCOC(=O)c1ccc(O)cc1"
meas_value = "1420 nM (active)"

[[record]]
molecule = "CCCCCCCCCCCCc1ccc(O)cc1"
meas_value = "1620 nM (active)"

[[record]]
molecule = "O=C(OCc1ccccc1)c1ccc(O)cc1"
meas_value = "322 nM (active)"

[[record]]
molecule = "COc1ccc(C(=O)c2ccccc2)c(O)c1"
meas_value = "6350 nM (active)"


---

# ASSAY INFO: ATG_CMV_CIS: Attagene CIS-FACTORIAL HepG2 Assay for human CMV (Internal Marker) (AID 2282928);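 also: endpoint acts as a background internal control marker rather than a target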
# MEASUREMENT SETUP: HepG2 CMV promoter reporter, transcription factor profiling; actives raise or lower the signal
The source made the active and inactive calls. The calls were made as follows: active = hit-call score of the fitted dose curve at least 0.9, where 1 is the maximum; inactive = score below 0.9. Peptide text beside a SMILES is read from it.
Outcome codes: active, inactive

[[record]]
compound = "CCCCCCCC(=O)OCC(COC(=O)CCCCCCC)OC(=O)CCCCCCC"
label_class = "inactive"

[[record]]
compound = "Cc1c[nH]c(=O)[nH]c1=O"
label_class = "inactive"

[[record]]
compound = "CC(C)OC(=O)c1ccccc1"
label_class = "inactive"

[[record]]
compound = "CCCCCCCC(=O)OCC"
label_class = "inactive"

[[record]]
compound = "CCCCCCCCCCCCCCCCCCOS(=O)(=O)O"
label_class = "active"

[[record]]
compound = "CCCCOCC(C)O (centres undefined)"
label_class = "inactive"

[[record]]
compound = "CC1=CC(C)C(C=O)CC1 (centres undefined)"
label_class = "inactive"

[[record]]
compound = "CC(=O)/C=C/C1C(C)=CCCC1(C)C (centres undefined)"
label_class = "inactive"

[[record]]
compound = "C=CC(=O)OCC(C)OCC(C)OCC(C)OC(=O)C=C (centres undefined)"
label_class = "active"

[[record]]
compound = "CC(=O)OC1CCCCC1"
label_class = "inactive"

[[record]]
compound = "CC(=O)OC1CCCCC1C(C)(C)C (centres undefined)"
label_class = "inactive"

[[record]]
compound = "CC1(C)CC(O)CC(C)(C)N1[O]"
label_class = "active"

[[record]]
compound = "O=C(OCCc1ccccc1)c1ccccc1"
label_class = "inactive"

[[record]]
compound = "O=C1c2ccccc2C(=O)c2cc(S(=O)(=O)O)ccc21"
label_class = "inactive"

[[record]]
compound = "CCCCNS(=O)(=O)c1ccc(C)cc1"
label_class = "inactive"

[[record]]
compound = "COC(=O)C=Cc1ccccc1"
label_class = "inactive"

[[record]]
compound = "Nc1ccnc(=O)[nH]1"
label_class = "inactive"

[[record]]
compound = "CCc1cccc(C)c1N"
label_class = "inactive"

[[record]]
compound = "CCCC1CCCC(=O)O1 (centres undefined)"
label_class = "inactive"

[[record]]
compound = "CC(=O)OCCc1ccccc1"
label_class = "inactive"

[[record]]
compound = "CCCCC1C(=O)N(c2ccccc2)N(c2ccccc2)C1=O"
label_class = "inactive"

[[record]]
compound = "CC(C)(C)C1CCC(=O)CC1"
label_class = "inactive"

[[record]]
compound = "CC1=CC=C(C(C)C)CC1"
label_class = "inactive"

[[record]]
compound = "CCOC(=O)/C=C\\C(=O)OCC"
label_class = "inactive"

[[record]]
compound = "CCCCCCCCCCCCCC(=O)OC(C)C"
label_class = "inactive"

[[record]]
compound = "COC(=O)c1ccccc1C"
label_class = "inactive"

[[record]]
compound = "C=CCCCCCCCCC=O"
label_class = "inactive"

[[record]]
compound = "Cc1cc(C)c(C=O)c(C)c1"
label_class = "inactive"

[[record]]
compound = "O=C1CCCN1C1CCCCC1"
label_class = "inactive"

[[record]]
compound = "CC(=O)CC(=O)Nc1ccccc1C"
label_class = "inactive"

[[record]]
compound = "CC(Cl)COP(=O)(OCC(C)Cl)OCC(C)Cl (centres undefined)"
label_class = "inactive"

[[record]]
compound = "CC1=CP(=O)(c2ccccc2)CC1 (centres undefined)"
label_class = "inactive"

[[record]]
compound = "COCC(=O)O"
label_class = "inactive"

[[record]]
compound = "CO[Si](C)(C)OC"
label_class = "inactive"

[[record]]
compound = "Cc1cccc(C(C)(C)C)c1O"
label_class = "inactive"

[[record]]
compound = "O=C(Oc1ccccc1)c1ccccc1O"
label_class = "inactive"

[[record]]
compound = "CC1CC(=O)CC(C)(C)C1 (centres undefined)"
label_class = "inactive"

[[record]]
compound = "O=S(=O)(O)c1ccc(N=Nc2c(O)ccc3ccccc23)cc1"
label_class = "inactive"

[[record]]
compound = "C=C(C)C(=O)OCCOC(=O)C(=C)C"
label_class = "inactive"

[[record]]
compound = "CCCCCCCCCCCCc1ccc(O)cc1"
label_class = "inactive"

[[record]]
compound = "C=Cc1cccc(C)c1"
label_class = "inactive"

[[record]]
compound = "C=C(C)C(=O)OCCCCCCCCCCCC"
label_class = "active"

[[record]]
compound = "COC(=O)[C@H](Cc1ccccc1)NC(=O)[C@@H](N)CC(=O)O (H-Asp-Phe-OMe)"
label_class = "inactive"

[[record]]
compound = "N#Cc1ccc(C(c2ccc(C#N)cc2)n2cncn2)cc1"
label_class = "inactive"

[[record]]
compound = "Cc1c(Cl)cccc1Cl"
label_class = "inactive"

[[record]]
compound = "O=C(O)C1CCC(C(=O)O)CC1 (centres undefined)"
label_class = "inactive"

[[record]]
compound = "CCCCC(=O)O"
label_class = "inactive"

[[record]]
compound = "CCCCCCCCC(CO)CCCCCC (centres undefined)"
label_class = "active"

[[record]]
compound = "CCCC=C(C=O)CC"
label_class = "inactive"

[[record]]
compound = "CC1CCC(=O)C1=O (centres undefined)"
label_class = "inactive"

[[record]]
compound = "CC(=O)OC/C=C(/C)CCC=C(C)C"
label_class = "inactive"

[[record]]
compound = "Cc1ccccc1CCO"
label_class = "inactive"

[[record]]
compound = "O=C(Nc1ccccc1)c1cc(Cl)ccc1O"
label_class = "inactive"

[[record]]
compound = "COC(=O)CC(C)CCC=C(C)C (centres undefined)"
label_class = "inactive"

[[record]]
compound = "CC(C)=CCCC(C)=CC#N"
label_class = "inactive"

[[record]]
compound = "C=CCOC(=O)c1ccc(C(=O)OCC=C)c(C(=O)OCC=C)c1"
label_class = "inactive"

[[record]]
compound = "CC/C=C\\CCOC(=O)c1ccccc1O"
label_class = "inactive"

[[record]]
compound = "O=C(O)c1cc(O)c2ccccc2c1O"
label_class = "inactive"

[[record]]
compound = "CC(C)(CO)C(O)C(=O)NCCCO (centres undefined)"
label_class = "inactive"

[[record]]
compound = "CCCCCCCCCCCC(C)=O"
label_class = "active"

[[record]]
compound = "CCCCOCCOCCOC(C)=O"
label_class = "inactive"

[[record]]
compound = "CC(C)=NNC(N)=S"
label_class = "inactive"

[[record]]
compound = "[Cl][Sc]([Cl])[Cl]"
label_class = "inactive"

[[record]]
compound = "CC12CCC(CC1)C(C)(C)O2"
label_class = "inactive"

